Method summary: Ratio of drug level in brain to plasma in rat at 5 mg/kg, po measured after 6 hrs
Assay type: ADME, organism-based
Design: dose 5 mg/kg, route oral
Experimental parameters: read-out: BPR
Property measured: Kp at 6 h

Some compounds with recorded Kp at 6 h:
Smiles representation: C[C@@H]1CCCN1CCCOc1ccc(C(=O)CN2CCN(C(=O)c3ccccc3)CC2)cc1
Endpoint result: 1.5
--
Smiles representation: CCOC(=O)N1CCN(CC(=O)c2ccc(OCCCN3CCC[C@H]3C)cc2)CC1
Endpoint result: 2.4
--
Smiles representation: COC(=O)N1CCN(CC(=O)c2ccc(OCCCN3CCC[C@H]3C)cc2)CC1
Endpoint result: 4.3

(1) C[C@@H]1CCCN1CCCOc1ccc(C(=O)CN2CCOCC2)cc1
(2) C[C@@H]1CCCN1CCCOc1ccc(C(=O)CN2CCC(F)(F)CC2)cc1
Ask | From the recorded data, which exceeds the other in Kp at 6 h: 1 or 2 ? Could you answer with the label of the item you picked?
Reply | 1

---

Recorded half-life values for a group of compounds are listed next.
Method summary: Half life in dog liver microsomes
Type: ADME, Canis lupus familiaris, Microsome

Some compounds with recorded half-life:
Smiles representation: C[C@@H]1CCCN1CCCOc1ccc(C(=O)CN2CCN(C(=O)c3ccccc3)CC2)cc1
Property measured: half-life
Endpoint result: > 40 min
//
Smiles representation: C[C@@H]1CCCN1CCCOc1ccc(C(=O)CN2CCOCC2)cc1
Property measured: half-life
Endpoint result: > 40 min

--- query ---
Ask | Given the entry COC(=O)N1CCN(CC(=O)c2ccc(OCCCN3CCC[C@H]3C)cc2)CC1 , report its measured half-life.
Reply | > 40 min

---

Target desc: hERG (KCNH2) (Homo sapiens, UniProt Q12809)
Sequence (Q12809 whole entry): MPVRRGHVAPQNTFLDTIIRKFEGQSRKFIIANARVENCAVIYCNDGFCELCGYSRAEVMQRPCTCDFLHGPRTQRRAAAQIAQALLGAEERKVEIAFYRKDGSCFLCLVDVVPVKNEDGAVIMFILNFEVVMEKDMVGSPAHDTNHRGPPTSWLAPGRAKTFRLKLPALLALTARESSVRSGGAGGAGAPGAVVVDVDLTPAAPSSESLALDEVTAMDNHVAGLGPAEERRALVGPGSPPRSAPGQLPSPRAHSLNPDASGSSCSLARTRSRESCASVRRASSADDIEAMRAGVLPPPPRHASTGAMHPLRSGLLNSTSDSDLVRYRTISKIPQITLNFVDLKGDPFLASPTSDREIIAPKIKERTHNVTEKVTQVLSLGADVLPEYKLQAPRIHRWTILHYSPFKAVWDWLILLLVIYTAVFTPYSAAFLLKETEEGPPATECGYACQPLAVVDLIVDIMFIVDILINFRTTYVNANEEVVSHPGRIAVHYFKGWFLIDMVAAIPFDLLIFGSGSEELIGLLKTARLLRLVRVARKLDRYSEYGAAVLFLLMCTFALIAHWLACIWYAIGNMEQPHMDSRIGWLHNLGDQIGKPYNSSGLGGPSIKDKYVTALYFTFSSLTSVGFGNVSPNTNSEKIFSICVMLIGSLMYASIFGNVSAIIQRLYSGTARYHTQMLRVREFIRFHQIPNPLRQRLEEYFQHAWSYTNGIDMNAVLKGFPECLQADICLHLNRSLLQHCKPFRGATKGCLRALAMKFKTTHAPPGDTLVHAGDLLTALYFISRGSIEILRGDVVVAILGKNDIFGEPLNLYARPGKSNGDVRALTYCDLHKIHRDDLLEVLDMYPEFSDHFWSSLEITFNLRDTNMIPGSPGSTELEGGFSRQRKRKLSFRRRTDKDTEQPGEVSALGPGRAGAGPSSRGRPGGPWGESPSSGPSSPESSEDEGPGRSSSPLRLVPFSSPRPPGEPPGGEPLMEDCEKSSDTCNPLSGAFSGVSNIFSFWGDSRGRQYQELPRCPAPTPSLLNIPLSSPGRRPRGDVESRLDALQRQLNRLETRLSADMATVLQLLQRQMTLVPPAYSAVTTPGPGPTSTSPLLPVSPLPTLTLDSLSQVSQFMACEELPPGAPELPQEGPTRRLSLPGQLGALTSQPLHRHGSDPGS
Method summary: Inhibition of human ERG at 10 uM
Property measured: inhibition at 10 µM (%)
Reply numerically in %, unit not repeated.

Ask | Given the entry C[C@@H]1CCCN1CCCOc1ccc(C(=O)CN2CCOCC2)cc1 , report its measured inhibition at 10 µM.
Reply | 21

---

Target desc: Cytochrome P450 2C9 (Homo sapiens, UniProt P11712)
Sequence (P11712 whole entry): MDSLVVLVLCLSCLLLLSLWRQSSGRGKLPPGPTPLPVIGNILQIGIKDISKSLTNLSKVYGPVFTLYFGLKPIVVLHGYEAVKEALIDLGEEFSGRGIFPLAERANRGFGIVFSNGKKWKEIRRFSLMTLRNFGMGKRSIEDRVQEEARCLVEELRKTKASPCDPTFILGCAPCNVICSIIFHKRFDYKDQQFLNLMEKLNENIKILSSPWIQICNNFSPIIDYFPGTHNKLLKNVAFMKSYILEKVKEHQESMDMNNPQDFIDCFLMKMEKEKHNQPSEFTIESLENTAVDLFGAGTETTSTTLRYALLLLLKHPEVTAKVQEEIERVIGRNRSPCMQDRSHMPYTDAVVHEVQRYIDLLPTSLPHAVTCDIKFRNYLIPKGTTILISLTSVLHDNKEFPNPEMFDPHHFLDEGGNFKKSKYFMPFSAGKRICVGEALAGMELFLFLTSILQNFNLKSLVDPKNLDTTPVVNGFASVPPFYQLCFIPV
pIC50: −log10 of the molar value.
Property measured: pIC50

Ask | # get_value(readout= pIC50, system= Cytochrome P450 2C9 (Homo sapiens, UniProt P11712)) for C[C@@H]1CCCN1CCCOc1ccc(C(=O)CN2CCC(F)(F)CC2)cc1
Reply | < 4.52

---

The following compounds have recorded Ki on Histamine H3 receptor (Homo sapiens, UniProt Q9Y5N1).
Sequence (Q9Y5N1 whole entry): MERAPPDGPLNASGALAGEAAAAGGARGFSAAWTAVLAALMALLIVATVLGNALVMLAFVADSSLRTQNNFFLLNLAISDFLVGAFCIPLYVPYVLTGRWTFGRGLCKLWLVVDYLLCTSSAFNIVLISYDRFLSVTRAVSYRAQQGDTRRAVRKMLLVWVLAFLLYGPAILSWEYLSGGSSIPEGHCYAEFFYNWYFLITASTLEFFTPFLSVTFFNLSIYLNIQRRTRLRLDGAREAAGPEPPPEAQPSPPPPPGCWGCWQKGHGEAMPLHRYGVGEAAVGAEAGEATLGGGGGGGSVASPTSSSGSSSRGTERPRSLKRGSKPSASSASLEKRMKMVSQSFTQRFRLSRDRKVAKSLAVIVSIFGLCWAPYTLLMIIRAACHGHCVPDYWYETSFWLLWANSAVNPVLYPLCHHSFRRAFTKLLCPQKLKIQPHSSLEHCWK
Property measured: Ki (nM)

Some compounds with recorded Ki:
Smiles representation: C[C@@H]1CCCN1CCCOc1ccc(C(=O)CN2CCN(C(=O)Oc3ccc(F)cc3)CC2)cc1
Ki, nM: 3
//
Smiles representation: COC(=O)N1CCN(CC(=O)c2ccc(OCCCN3CCC[C@H]3C)cc2)CC1
Ki, nM: 3.2
//
Smiles representation: CCOC(=O)N1CCN(CC(=O)c2ccc(OCCCN3CCC[C@H]3C)cc2)CC1
Ki, nM: 4
//
Smiles representation: C[C@@H]1CCCN1CCCOc1ccc(C(=O)CN2CCN(C(=O)Oc3ccccc3)CC2)cc1
Ki, nM: 3.9
//
Smiles representation: C[C@@H]1CCCN1CCCOc1ccc(C(=O)CN2CCN(C(=O)c3ccc(F)cc3)CC2)cc1
Ki, nM: 0.6
//
Smiles representation: CC(C)COC(=O)N1CCN(CC(=O)c2ccc(OCCCN3CCC[C@H]3C)cc2)CC1
Ki, nM: 4.6

(1) CC(=O)N1CCN(CC(=O)c2ccc(OCCCN3CCC[C@H]3C)cc2)CC1
(2) C[C@@H]1CCCN1CCCOc1ccc(C(=O)CN2CCC(F)(F)CC2)cc1
Ask | From the recorded data, which exceeds the other in Ki: 1 or 2 ? Could you answer with the label of the item you picked?
Reply | 2
(2: 11 nM, 1: 2.8 nM)

---

Method summary: Cmax in rat at 5 mg/kg, po
Type: ADME, organism-based
Design: dose 5 mg/kg, route oral
Experimental parameters: in vivo
Property measured: Cmax (ng/mL)

Smiles representation: C[C@@H]1CCCN1CCCOc1ccc(C(=O)CN2CCN(C(=O)c3ccccc3)CC2)cc1
Property measured: Cmax
Endpoint result: 165

(A) C[C@@H]1CCCN1CCCOc1ccc(C(=O)CN2CCOCC2)cc1
(B) C[C@@H]1CCCN1CCCOc1ccc(C(=O)CN2CCC(F)(F)CC2)cc1
(C) COC(=O)N1CCN(CC(=O)c2ccc(OCCCN3CCC[C@H]3C)cc2)CC1
Ask | Order the records so the highest Cmax appears first and the lowest last. Please express your ranking as an ordered list of the labels.
Reply | C, B, A

---

Method summary: Plasma protein binding in human
Type: ADME, cell-free
Experimental parameters: read-out: PPB
Property measured: fraction unbound

Ask | Given the entry C[C@@H]1CCCN1CCCOc1ccc(C(=O)CN2CCOCC2)cc1 , report its measured fraction unbound.
Reply | > 0.8

---

Target desc: Cytochrome P450 3A4 (Homo sapiens, UniProt P08684)
Sequence (P08684 whole entry): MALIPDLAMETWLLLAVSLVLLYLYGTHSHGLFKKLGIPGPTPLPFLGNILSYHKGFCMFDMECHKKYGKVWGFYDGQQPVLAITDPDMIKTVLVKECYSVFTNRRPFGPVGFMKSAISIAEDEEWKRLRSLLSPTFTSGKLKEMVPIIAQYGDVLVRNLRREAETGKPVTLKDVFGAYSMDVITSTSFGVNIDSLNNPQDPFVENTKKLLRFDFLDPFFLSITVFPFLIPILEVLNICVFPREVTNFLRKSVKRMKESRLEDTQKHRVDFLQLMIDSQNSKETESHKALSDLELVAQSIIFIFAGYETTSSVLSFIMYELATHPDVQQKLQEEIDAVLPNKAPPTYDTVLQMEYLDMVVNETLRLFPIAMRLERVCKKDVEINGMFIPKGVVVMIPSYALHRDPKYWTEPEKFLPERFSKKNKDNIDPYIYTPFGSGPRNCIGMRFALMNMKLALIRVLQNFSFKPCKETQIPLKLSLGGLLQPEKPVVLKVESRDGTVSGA
Property measured: IC50

Ask | # get_value(readout= IC50, system= Cytochrome P450 3A4 (Homo sapiens, UniProt P08684)) for COC(=O)N1CCN(CC(=O)c2ccc(OCCCN3CCC[C@H]3C)cc2)CC1
Reply | > 30 µM
